# STUDY TARGET: T1, dansylated calmodulin (rat, UniProt P0DP30 1-149, dansyl group covalently bound to CaM (position not given))
# T1 construct: calmodulin, rat brain, NM_017326; also called D-CaM; dansyl-CaM
# TEST METHOD NOTES: other fluorescence titration; 12.5 nM D-CaM, ligand added incrementally, enhancement of dansyl emission; D-CaM binding buffer with 3.9 µM free Ca2+ (9.63 mM Ca2+, 2 mM Mg2+, 10 mM EGTA, pH 7.4); apparent affinity (EC50 of a Hill fit)
# RUN CONDITIONS: both partners purified
QUANTITY: pEC50
Give only the number. pEC50 is defined as minus log10 of concentration in molar units.

Challenge: If you can, please state the reported pEC50 value of GILGSGFALKVQEQHRQKHFEKRRNPAAGLIQSAWRFYATNLSRTDLHST (domain or fragment, human, UniProt O43526 310-359, looked up, helix A of human Kv7.2 (KCNQ2) Y15065, residues G310-T359; also called segment A; source: E. coli BL21-DE3, purified (GSH sepharose)) [Kv7.2 helix A (hA residues G310–T359)] .
Response given: 7.18
